# Test system: SK-OV-3 ovarian
# test-name: NCI-60 one-dose screen, 48 h
# recorded-conditions: 10 µM
The panel holds about 83,000 compounds, 20% with a hit somewhere; the sample as a whole holds those more often. Activity calls are given as the source filed them. How the source made its calls: active means growth percent below 10; inactive means the rest.
Respond only with the outcome that fits, drawn from Y for active, N for inactive

Q: Status in this test for `Clc1cc(Cl)c(Cl)nn1` ?
Ans: N

Q: I'd appreciate the recorded outcome for OCC1OC(n2cnc3c(=S)nc[nH]c32)C(O)C1O (configuration not stated) from this test.
Ans: N

Q: Look up the recorded call for COc1cccc2c1C(=O)c1c(O)c3c(c(O)c1C2=O)C[C@@](O)(C(C)=O)C[C@@H]3OC1CC(N)C(O)C(C)O1 (some centres not stated) in this test.
Ans: Y

Q: Lab log entry: `O=C1NC(=O)c2cc([N+](=O)[O-])ccc21` — outcome as called in the assay?
Ans: N

Q: Per the records of this test, what outcome belongs to `CN1CCN(CCCN2c3ccccc3Sc3ccc(C(F)(F)F)cc32)CC1` ?
Ans: N

Q: Please let me know the test result on file for `CC(C)(C)CC(C)(C)c1ccc(OCCO)cc1` .
Ans: N

Q: Identify the outcome logged in this assay for the molecule shown: `C[n+]1c2cc(N)ccc2cc2ccc(N)cc21`
Ans: Y

Q: What classification did `O=C(O)COc1ccc(OCC(=O)O)cc1` end up with in this test?
Ans: N

Q: Can you look up the reported call for `Cc1nc(N=C(N)N)nc2ccc3ccccc3c12` for me?
Ans: Y

Q: Please let me know the test result on file for `O=C(/C=C/c1ccccn1)c1ccccc1` .
Ans: N

Q: I would be grateful if you could indicate the recorded call for CC(=O)OCC(OC(C)=O)C(OC(C)=O)C(OC(C)=O)C(OC(C)=O)C(/C=N/Nc1ccccc1)=N/Nc1ccccc1 (configuration not stated) .
Ans: N

Q: Can you look up the reported call for OCC(O)C(O)C(O)C(/C=N/Nc1ccccc1)=N/Nc1ccccc1 (configuration not stated) for me?
Ans: N

* * *

# System: SK-OV-3 ovarian
# test-name: NCI-60 one-dose screen, 48 h (100 = growth as untreated, 0 = no growth, -100 = all killed)
# recorded-conditions: 10 µM
# Protocol: Growth inhibition of the SK-OV-3 human tumor cell line is measured as a screen for anti-cancer activity. Cells are grown in 96 well plates and exposed to the test compound for 48 hours. Compounds are tested at a single concentration, which is 10^-5 M for most compounds. The reported endpoint is percent growth (GI% or GIPRCNT), where numbers from 0 - 100% represent growth inhibition, and numbers from -100% - 0 represent cell death. For example, a value of 40 represents 60% growth inhibition. […]
Compounds without any hit were thinned out: in the full panel of roughly 83,000, 20% have a hit.
Tag: Fulfilled if measured growth is not below 50%, Not fulfilled if it is.

Q: Is the recorded value of growth equal to or greater than 50% for this compound? OC(CN1CCCC2CCCCC21)c1cc2ccccc2c2ccccc12 (configuration not stated)
Ans: Not fulfilled

Q: For this compound, is measured growth 50% or higher? `CCCCCCCCCCSC(=N)N`
Ans: Fulfilled

Q: growth >= 50% for O=c1ccn(C2CC(O)C(COC(c3ccccc3)(c3ccccc3)c3ccccc3)O2)c(=O)[nH]1 (configuration not stated) ?
Ans: Fulfilled

Q: // inclusive: growth at least 50%? input: `N=S(c1ccccc1[N+](=O)[O-])c1ccccc1[N+](=O)[O-]`
Ans: Fulfilled

Q: Decide: is the reported value of growth for `CCCCCCCCCCCC[N+](C)(C)Cc1ccccc1` equal to or greater than 50%?
Ans: Not fulfilled

Q: Item `NC1=C(Cl)C(=O)c2ccccc2C1=O` with growth of 50% or above?
Ans: Fulfilled

Q: Reported growth at or above 50%? `O=C1C=CC(=CC=C2C=CN(CCCCCCCCCCCO)C=C2)C=C1`
Ans: Not fulfilled

Q: Has `NNc1c2ccccc2nc2ccccc12` a recorded growth greater than or equal to 50%?
Ans: Fulfilled

Q: Could you please find out whether CCCCCCCCCCCCCCCCCCOCC(COP(=O)([O-])OCC[N+](C)(C)C)OC (configuration not stated) has growth that meets 50% or exceeds it?
Ans: Fulfilled

Q: Does the reported growth for `NC(=O)SCC(=O)NNc1ccccc1` fall at or above the 50% mark?
Ans: Fulfilled

Q: Determine whether measured growth meets or exceeds 50% for `CCN1/C(=C/C=C/C=C/c2sc3ccccc3[n+]2CC)Sc2ccccc21`
Ans: Not fulfilled

Q: Hi team, for `Oc1ccc(N=Nc2ccccn2)c(O)c1` , is the recorded growth at or above 50%?
Ans: Not fulfilled

* * *

# Test system: SNB-19 CNS
# test-name: NCI-60 one-dose screen, 48 h (100 = growth as untreated, 0 = no growth, -100 = all killed)
# recorded-conditions: 10 µM
This is part of a sample that, as a whole, favours compounds with a hit. Of some 83,000 tested, about 20% had one in any assay. Where a SMILES comes first, the peptide text is derived from it. [ ]: non-standard residue; d: D form. ξ: configuration not given here. ξV = CC(C)C(N)C(=O)O
For each entry below, report its growth value.
Write it as a number; the unit % goes unstated.

Q: For the compound shown here, `Cc1cc(O)c(C(C)C)cc1Cl` , give the reported growth.
Ans: 103

Q: Return reported growth; argument: `O=C1C=C(O)c2ccccc2C1=O.[Ag]`
Ans: 102

Q: Quick one: growth for OCC(O)C(O)C(O)C(/C=N/Nc1ccccc1)=N/Nc1ccccc1 (stereo unspecified) ?
Ans: 97.4

Q: Please report the recorded growth for `CCC(C)(C)c1cc(O)c(C(C)(C)CC)cc1O` .
Ans: 21.8

Q: Any idea what growth was measured for `CCN1/C(=C/C=C/C=C/c2sc3ccccc3[n+]2CC)Sc2ccccc21` ?
Ans: -5.19

Q: For the compound CC(C)C(NC(=O)CN)C(=O)O (stereo unspecified) (H-Gly-[ξV]-OH) , what growth is on record?
Ans: 106

* * *

# System: SNB-75 CNS
# test-name: NCI-60 one-dose screen, 48 h (100 = growth as untreated, 0 = no growth, -100 = all killed)
# recorded-conditions: 10 µM
# Procedure: Growth inhibition of the SNB-75 human tumor cell line is measured as a screen for anti-cancer activity. Cells are grown in 96 well plates and exposed to the test compound for 48 hours. Compounds are tested at a single concentration, which is 10^-5 M for most compounds. The reported endpoint is percent growth (GI% or GIPRCNT), where numbers from 0 - 100% represent growth inhibition, and numbers from -100% - 0 represent cell death. For example, a value of 40 represents 60% growth inhibition. […]
Compounds without any hit were thinned out: in the full panel of roughly 83,000, 20% have a hit.
Classes are defined on growth with ranges bin 0: < 70%; bin 1: ≥ 70% and < 90%; bin 2: ≥ 90%

Q: Which category fits this record: `Cc1cc(O)c(C(C)C)cc1Cl`
Ans: bin 2

Q: # bin label for `Oc1ccc(N=Nc2ccccn2)c(O)c1`
Ans: bin 0

Q: Category of CSC1SCC2C(=O)N(C)C(C(C)C)C(=O)OCC(NC(=O)c3cnc4ccccc4n3)C(=O)NC(C)C(=O)N(C)C1C(=O)N(C)C(C(C)C)C(=O)OCC(NC(=O)c1cnc3ccccc3n1)C(=O)NC(C)C(=O)N2C (configuration not stated) :
Ans: bin 0

Q: // bin(item) where item = `COc1c(O)cc2oc3cc(O)c(CC=C(C)C)c(O)c3c(=O)c2c1CC=C(C)C`
Ans: bin 1

Q: Band of OCC(O)C(O)C(O)C(/C=N/Nc1ccccc1)=N/Nc1ccccc1 (configuration not stated) ?
Ans: bin 0

Q: For the record CCCCCCCCCCCCCCCCCCOCC(COP(=O)([O-])OCC[N+](C)(C)C)OC (configuration not stated) , report the class its growth corresponds to.
Ans: bin 1

Q: Just checking, what class would you give CCN(CC)c1ccc(NC(C(=O)c2ccccc2)c2ccccc2)cc1 (configuration not stated) here?
Ans: bin 1

Q: Band assignment needed for `CCN1/C(=C/C=C/C=C/c2sc3ccccc3[n+]2CC)Sc2ccccc21` please.
Ans: bin 0

Q: State the class of the molecule shown: `CCO/C=C1\SC(=S)N(c2cccc(O)c2)C1=O`
Ans: bin 1

Q: Assign a category based on measured growth for COC1OCC(O)C(O)C1O (configuration not stated) and give only the class name.
Ans: bin 1

Q: Hi, small favor: classify `Cc1nc(N=C(N)N)nc2ccc3ccccc3c12` by its growth when you get a moment.
Ans: bin 0

Q: Please let me know in which category the item `O=[N+]([O-])C1=C(c2ccccc2)SC=C(c2ccccc2)S1` belongs.
Ans: bin 2

Q: Exam item: assign CS(=O)(=O)OC1CC(n2ccc(=O)[nH]c2=O)OC1COC(c1ccccc1)(c1ccccc1)c1ccccc1 (configuration not stated) to the correct category.
Ans: bin 2

Q: Hey, which category is `CCC(C)(C)c1cc(O)c(C(C)(C)CC)cc1O` in, do you know?
Ans: bin 0

Q: Field: class (growth) — entry: COc1cccc2c1C(=O)c1c(O)c3c(c(O)c1C2=O)C[C@@](O)(C(C)=O)C[C@@H]3OC1CC(N)C(O)C(C)O1 (some centres not stated)
Ans: bin 0

Q: Class? Entry: `CC(=O)Nc1cc(C)ccc1C`
Ans: bin 2
